- assayText: Solubility of the compound
- Format: physicochemical
# solubility annotations
Dear colleague, please return just the value in µM, with no unit written.

# annotated cases, reported solubility shown
>>> valueobserved("C[C@H](NC(=O)[C@@H](N)c1cccc(Cl)c1)C(=O)N[C@H]1CC=C[C@H](C2CCCCC2)N(C)C1=O")
888
>>> valueobserved("C[C@H](NC(=O)Cc1cc(F)cc(F)c1)C(=O)N[C@H]1CC=C[C@H](c2ccccc2)N(C)C1=O")
450

Kindly review the next molecule as well.
input: Which solubility reading was recorded for the molecule `C[C@H](NC(=O)OCc1ccccc1)C(=O)N[C@H]1CC=C[C@H](c2ccccc2)N(C)C1=O` ?
output: 341
